- System: BT-549 breast
- measurement-protocol: NCI tumour cell line growth inhibition, 48 h
outcome-measure: TGI

Guide cases for TGI, answers given:
c1ccc2c3c(c(N4CCOCC4)nc2c1)CCCC3; > 100 µM
CC1CC(=O)Nc2nc3ccccc3n21 (stereo not given); > 100 µM
CC[C@@H]1CN(C)[C@H]2Cc3c([nH]c4ccccc34)C(=O)C[C@H]1C2C(=O)OC (stereo not given in full); > 100 µM
COc1ccc(/C(COc2c(-c3ccccc3)oc3ccccc3c2=O)=N\O)cc1; 25.6 µM

Report TGI for each item below.
1. CC(C)(C)OC(=O)N1CCc2c(sc3ncnc(N/N=C/c4cccc5ccccc45)c23)C1
2. COc1cc(C2NC(=O)c3ccccc3N2)ccc1OCCCCCOc1c(OC)cc(C2=NOC(c3cc(OC)c(OC)c(OC)c3)C2)cc1OC (stereo not given)
3. Cc1nc(C)c(Cc2ccccc2)o1

1. 72.9 µM
2. > 100 µM
3. > 100 µM

Report TGI for each item below.
1. C[C@]12CC[C@H]3[C@@H](CC=C4C[C@@H](O)CC[C@@]43C)[C@@H]1CC[C@@H]2N(CCO)CCO
2. Cn1c([O-])nc(-n2cc[n+](C)c2)cc1=O
3. O=C(N/N=C/c1ccco1)c1cc(I)cc(I)c1O

> 100 µM
> 100 µM
> 50 µM
